All values here come from patent US20040214832A1.

Molecular target: human renin (Homo sapiens)
Sequence (P00797 67-406): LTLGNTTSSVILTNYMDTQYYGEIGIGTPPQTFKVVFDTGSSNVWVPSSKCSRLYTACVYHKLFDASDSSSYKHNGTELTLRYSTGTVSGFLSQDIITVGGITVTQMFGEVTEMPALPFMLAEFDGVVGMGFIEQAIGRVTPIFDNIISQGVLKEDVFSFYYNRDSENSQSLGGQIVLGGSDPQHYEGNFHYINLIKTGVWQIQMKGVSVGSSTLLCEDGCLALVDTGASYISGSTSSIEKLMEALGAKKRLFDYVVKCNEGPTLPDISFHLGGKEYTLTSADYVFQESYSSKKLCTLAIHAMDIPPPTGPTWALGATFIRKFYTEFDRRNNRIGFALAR
Test: Determination of renin IC50 by tGFP FRET assay
Format: biochemical
Settings: Human recombinant renin, tandem GFP substrate 650 nM, 60 min incubation with compound, pH 7.4, 11-point curve
Reported endpoint: pIC50
When answering, recall that pIC50 equals minus log10 of the concentration in mol/L, and write that number alone.

Completed entries (count: 3):
Molecule	pIC50
COc1ccc(COC[C@H]2CNCCN2c2ccc(COCCOCc3ccccc3OC)cc2)cc1	4.52
COc1ccccc1COCCCOc1ccc(N2C(=O)CNC[C@@H]2COc2ccc3c(c2)NCCC3)cc1	6.91
COc1ccccc1COCCCOc1ccc(N2C(=O)CNC[C@@H]2COc2ccc3c(ccn3CCNC(C)=O)c2)cc1	8.33

For this compound ( CCOc1ccccc1COCCCOc1ccc(N2CCNC[C@@H]2COc2ccc3ccccc3c2)cc1 ), measured pIC50 is 5.70

For this compound ( COc1ccccc1COCCCOc1ccc(N2C(=O)CNC[C@@H]2COc2ccc3ccccc3c2)cc1 ), measured pIC50 is 7.27
